These measurements were taken from patent US11116757B2.

This section presents compounds with their documented IC50 values.
# Assay System: DCN1-UBC12 interaction (Homo sapiens (Human))
# Experiment Description: biochemical
# Format: binding
# Settings: Table 7, commercial compounds; read-out: TR-FRET IC50

Compound | IC50
COc1cccc(C2c3c(C)nn(C)c3NC(=O)C2NC(=O)c2cccc(C)c2)c1 (stereo not shown) | > 67.6 µM

Query: Complete the entry with IC50 for CSc1ccc(C2c3c(C)nn(C)c3NC(=O)C2NC(=O)c2cccc(C)c2)cc1 (stereo not shown)
Result: 39.5 µM

Query: Item COc1ccc(C2c3c(C)nn(C)c3NC(=O)C2NC(=O)c2cccc(C)c2)cc1OC (stereo not shown) : provide IC50
Result: > 67.6 µM

Query: // Input: Cc1cccc(C(=O)NC2C(=O)Nc3c(c(C)nn3C)C2c2ccc(F)c(Br)c2)c1 (stereo not shown) . Output its IC50 only.
Result: > 67.6 µM

Query: Given COc1ccc(C2c3c(C)nn(C)c3NC(=O)C2NC(=O)c2ccc(OC)c(OC)c2)cc1F (stereo not shown) , respond with its IC50.
Result: > 67.6 µM

Query: Determine from records and report IC50 for CCOc1ccc(C2c3c(C)nn(C)c3NC(=O)C2NC(=O)c2cccc(C)c2)cc1 (stereo not shown)
Result: > 67.6 µM

Query: Please list IC50 recorded for the compound Cc1cccc(C(=O)NC2C(=O)Nc3c(c(C)nn3C)C2c2ccc(C(C)(C)C)cc2)c1 (stereo not shown)
Result: > 67.6 µM

Query: Name the recorded IC50 of the compound listed here: COc1ccc(C2c3c(C)nn(C)c3NC(=O)C2NC(=O)c2ccc(Cl)cc2)cc1F (stereo not shown)
Result: > 67.6 µM

Query: Entry COc1ccc(C2c3c(C)nn(C)c3NC(=O)C2NC(=O)c2ccccc2)cc1OC (stereo not shown) needs its IC50 filled in; supply it.
Result: > 67.6 µM

Query: Return IC50 (reported value) for this compound: Cc1cccc(C(=O)NC2C(=O)Nc3c(c(C)nn3-c3ccccc3)C2c2ccc(C#N)cc2)c1 (stereo not shown)
Result: 35.1 µM

====

# Assay System: DCN1-UBC12 interaction (Homo sapiens (Human))
# Experiment Description: biochemical
# Assay type: binding
# Settings: read-out: TR-FRET IC50
The following compounds are shown together with reported IC50 values.

Would you please look over these solved cases?
Compound | IC50
O=C(Nc1ccc(CN2CCOCC2)cc1)Nc1cccc(C(F)(F)F)c1 [B108] | > 72.8 µM
O=C(c1ccc(Cl)c(Cl)c1)N1CCC(c2nc3ccccc3s2)CC1 [D7] | 19.5 µM
C=CC(=O)NCCN(C(=O)Nc1cccc(C(F)(F)F)c1)C1CCN(C(C)CCC)CC1 (centres unmarked) [A187] | 33.8 µM
CCCC(C)N1CCC(N(Cc2ccccc2)C(=O)Nc2cccc(S(F)(F)(F)(F)F)c2)CC1 (centres unmarked) [A25] | 0.155 µM

Query: Please list IC50 recorded for the compound CCCC(C)N1CCC(N(Cc2ccccc2)C(=O)Nc2ccc(Cl)c(F)c2)CC1 (centres unmarked) [A49]
Result: 0.265 µM

Query: Return value of IC50 for input O=C(c1ccccc1O)N1CCC(c2nc3ccccc3s2)CC1 [D29] , no commentary.
Result: > 67.6 µM

Query: Return value of IC50 for input Cc1ccc2[nH]c(C3CCN(Cc4cccc(C(F)(F)F)c4)CC3)nc2c1 [B19] , no commentary.
Result: < 0.004 µM

Query: Check the records and state IC50 for O=C(c1ccccc1F)N1CCC(c2nc3ccccc3s2)CC1 [D13]
Result: 45.3 µM

Query: Please indicate IC50 recorded for CC1CC(N(C)C(=O)Nc2ccccn2)CCN1Cc1ccccc1 (centres unmarked) [B106]
Result: > 71.5 µM

Query: For the compound COc1ccc(CN(C(=O)Nc2cc(C)ccc2C)C2CCN(C(C)=O)CC2)cc1 [B82] , give its reported IC50.
Result: > 67.6 µM

Query: Name the recorded IC50 of the item Cc1cc(NC(=O)NC2CCN(Cc3ccccc3)CC2)c(C(F)(F)F)o1 [B119] in your answer.
Result: > 79 µM

====

# Assay System: DCN1-UBC12 interaction (Homo sapiens (Human), UniProt Q96GG9)
# Sequence (Q96GG9 60-248 limits assumed): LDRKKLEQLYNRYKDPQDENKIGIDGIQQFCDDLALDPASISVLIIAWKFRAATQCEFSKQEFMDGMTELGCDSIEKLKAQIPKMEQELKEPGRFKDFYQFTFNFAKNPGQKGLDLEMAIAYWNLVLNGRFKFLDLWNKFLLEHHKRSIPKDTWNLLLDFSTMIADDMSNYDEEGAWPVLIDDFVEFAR
# Experiment Description: biochemical
# Assay type: binding
# Settings: Table 10, R101 series; read-out: IC50 (μM) (TR-FRET)
Known IC50 of a selection of compounds
Please give a number only; it is taken to be in µM.

Known results for compounds:
Chem Smiles | Assay System | Measured Quantity | Endpoint Unit | Measured Result
O=C(Nc1cccc(C(F)(F)F)c1)N(Cc1ccccc1)C1CCN(Cc2ccc3c(c2)OCCO3)CC1 | DCN1-UBC12 interaction (Homo sapiens (Human), UniProt Q96GG9) | IC50 | µM | 7.3
O=C(Nc1cccc(C(F)(F)F)c1)N(Cc1ccccc1)C1CCN(Cc2ccc(F)cc2)CC1 | DCN1-UBC12 interaction (Homo sapiens (Human), UniProt Q96GG9) | IC50 | µM | 9.2
O=C(Nc1cccc(C(F)(F)F)c1)N(Cc1ccccc1)C1CCN(Cc2cccnc2)CC1 | DCN1-UBC12 interaction (Homo sapiens (Human), UniProt Q96GG9) | IC50 | µM | 12

Field: next compound
Query: Identify measured IC50 corresponding to O=C(Nc1cccc(C(F)(F)F)c1)N(Cc1ccccc1)C1CCN(Cc2ccc3c(c2)OCO3)CC1
Result: 7

====

pIC50: recorded values
# Assay System: DCN1-UBC12 interaction (Homo sapiens (Human), UniProt Q96GG9)
# Experiment Description: biochemical
# Assay type: binding
# Settings: read-out: TR-FRET IC50
Keep it numeric: pIC50 is minus log10 of the concentration in mol/L.

Molecule | Measured Result
CCCCN(C(=O)Nc1ccc(Cl)c(Cl)c1)C1CCN(C(C)CCC)CC1 (centres unmarked) [A20] | 6.93
CCCCN1CCC(N(Cc2ccccc2)C(=O)Nc2ccc(C)s2)CC1 [A182] | 4.67

Now look at this entry.
Query: Look up and report pIC50, with DCN1-UBC12 interaction (Homo sapiens (Human), UniProt Q96GG9) as system, for CCCC(C)N1CCC(N(Cc2ccccc2)C(=O)Nc2cc(Cl)c(Cl)cc2F)CC1 (centres unmarked) [A78]
Result: 6.10

====

# Assay System: DCN1-UBC12 interaction (Homo sapiens (Human))
# Experiment Description: biochemical
# Format: binding
# Settings: read-out: TR-FRET IC50
Measured Quantity: IC50 (µM)
// return numeric value only (unit: µM, not printed)

Worked set:
Molecule | Assay System | Endpoint Unit | IC50
CCCC(C)N1CCC(N(Cc2ccccc2)C(=O)Nc2ccc(OC(F)(F)F)cc2)CC1 (centres unmarked) | DCN1-UBC12 interaction (Homo sapiens (Human)) | µM | 0.191
CCCC(C)N1CCC(N(Cc2ccccc2)C(=O)Nc2ccc(Cl)c(Cl)c2F)CC1 (centres unmarked) | DCN1-UBC12 interaction (Homo sapiens (Human)) | µM | 0.227
CCCCN(C(=O)Nc1cc(F)cc(C(F)(F)F)c1)C1CCN(C(C)CCC)CC1 (centres unmarked) | DCN1-UBC12 interaction (Homo sapiens (Human)) | µM | 0.917
CC(C1CCCCC1)N1CCC(N(Cc2ccccc2)C(=O)Nc2cc(F)cc(C(F)(F)F)c2)CC1 (centres unmarked) | DCN1-UBC12 interaction (Homo sapiens (Human)) | µM | 1.77

Please find the next molecule below.
Query: In one line, give reported IC50 of the entry CCCCN(C(=O)Nc1cccc(C(F)(F)F)c1)C1CCN(CCC)CC1 .
Result: 1.33

====

# Assay System: DCN1-UBC12 interaction (Homo sapiens (Human), UniProt Q96GG9)
# Experiment Description: biochemical
# Format: binding
# Settings: Table 4, commercial compounds; read-out: TR-FRET IC50
Each entry below carries its reported IC50.

Compound | Measured Quantity | Measured Result
CSc1cccc(NC(=O)C2CCN(C(=O)c3ccccc3C)CC2)c1 | IC50 | 30.1 µM
COCCC(=O)N1CCC(C(=O)Nc2ccc(-c3cc4ccccc4[nH]3)cc2)CC1 | IC50 | > 67.6 µM
O=C(Nc1cccc(C(F)(F)F)c1)C1CCN(C(=O)c2cccc(F)c2)CC1 | IC50 | > 42.9 µM

Query: Give the observed IC50 of COc1ccc(C(=O)N2CCC(C(=O)Nc3cccc(C(F)(F)F)c3)CC2)cc1 for DCN1-UBC12 interaction (Homo sapiens (Human), UniProt Q96GG9).
Result: 8.07 µM

Query: Find IC50 for COc1ccc(C(=O)N2CCC(C(=O)Nc3ccccc3C)CC2)c2ccccc12 on DCN1-UBC12 interaction (Homo sapiens (Human), UniProt Q96GG9) and write it down.
Result: > 67.6 µM

Query: GET IC50 | system: DCN1-UBC12 interaction (Homo sapiens (Human), UniProt Q96GG9) | item: COc1ccc(NC(=O)C2CCN(C(=O)N3CCOc4ccccc43)CC2)cc1
Result: > 67.6 µM

Query: Lab note: DCN1-UBC12 interaction (Homo sapiens (Human), UniProt Q96GG9) assay, enter IC50 for O=C(Nc1ccc(Cl)c(C(F)(F)F)c1)C1CCN(C(=O)c2ccc(Br)cc2)CC1 here
Result: > 67.6 µM

Query: Provide IC50, tested on DCN1-UBC12 interaction (Homo sapiens (Human), UniProt Q96GG9), for COc1cccc(NC(=O)C2CCN(C(=O)c3ccc(OC)c4ccccc34)CC2)c1 .
Result: > 67.6 µM

Query: Give DCN1-UBC12 interaction (Homo sapiens (Human), UniProt Q96GG9) IC50 for the following compound: O=C(Nc1ccc(F)c(Cl)c1)C1CCN(C(=O)c2ccc(F)cc2)CC1
Result: > 67.6 µM

Query: Please tell me the measured IC50 for COc1cccc(NC(=O)C2CCN(C(=O)c3cnn(-c4ccccc4)c3-n3cccc3)CC2)c1 ; system: DCN1-UBC12 interaction (Homo sapiens (Human), UniProt Q96GG9).
Result: > 67.6 µM

Query: Look up DCN1-UBC12 interaction (Homo sapiens (Human), UniProt Q96GG9) data: IC50 of CCC1CN(C(=O)N2CCC(C(=O)Nc3cccc(OC)c3)CC2)c2ccccc2O1 (stereo not shown) , then report it.
Result: > 67.6 µM

Query: GET IC50 where system = DCN1-UBC12 interaction (Homo sapiens (Human), UniProt Q96GG9) and item = COc1ccc(C(=O)NC2CCN(C(=O)c3ccc(OC)cc3)CC2)cc1
Result: > 92.2 µM

Query: Provide IC50, system DCN1-UBC12 interaction (Homo sapiens (Human), UniProt Q96GG9), entry CCOc1ccccc1NC(=O)C1CCN(C(=O)c2ccc(OC)cc2)CC1
Result: > 67.6 µM

Query: Please indicate recorded IC50 of CCc1cccc(NC(=O)C2CCN(C(=O)c3cnn(-c4ccccc4)c3-n3cccc3)CC2)c1 measured with DCN1-UBC12 interaction (Homo sapiens (Human), UniProt Q96GG9).
Result: > 81.4 µM

Query: Identify measured IC50 obtained with DCN1-UBC12 interaction (Homo sapiens (Human), UniProt Q96GG9) for Cc1ccc(C(=O)N2CCC(C(=O)Nc3ccc(C)c(C)c3)CC2)cc1 .
Result: > 67.6 µM

Query: Retrieve IC50 on DCN1-UBC12 interaction (Homo sapiens (Human), UniProt Q96GG9); query COCC(=O)N1CCC(C(=O)Nc2ccc(-c3cc4ccccc4[nH]3)cc2)CC1
Result: > 67.6 µM
